biological target: bovine thrombin (Bos taurus); test: Antithrombin activity: inhibition of S-2238 decomposition; assay type: biochemical; settings: Table 2; S-2238 substrate, pH 8.3, 37° C.; read-out: Thrombin S-2238 (I50)
pIC50: −log10 of the molar value.
Listed compounds paired with reported pIC50

[[record]]
structure_notation = "Cc1ccc(NC(=O)[C@H](Cc2ccc(OCc3ccccc3)cc2)NC(=O)[C@H]2CC[C@H](CN)CC2)cc1C"
reading = "< 3.90"

[[record]]
structure_notation = "CC(=O)c1ccc(NC(=O)[C@H](Cc2ccc(OC(=O)OCc3ccccc3Cl)cc2)NC(=O)[C@H]2CC[C@H](CN)CC2)cc1"
reading = 4.07

[[record]]
structure_notation = "CC(=O)c1ccc(NC(=O)[C@H](Cc2ccc(OCc3ccncc3)cc2)NC(=O)[C@H]2CC[C@H](CN)CC2)cc1"
reading = "< 3.40"

[[record]]
structure_notation = "CC(=O)c1ccc(NC(=O)[C@H](Cc2ccc(OC(=O)OCc3ccccc3)cc2)NC(=O)[C@H]2CC[C@H](CN)CC2)cc1"
reading = "< 4.00"


Exam item: Need pIC50, item CC(=O)c1ccc(NC(=O)[C@H](Cc2ccc(OCc3ccccc3Cl)cc2)NC(=O)[C@H]2CC[C@H](CN)CC2)cc1
Marked response: < 3.70

The measured values listed here are drawn from patent US4895842A.
